The reported numbers originate from PubChem BioAssay AID1259407.

- Tested on: CCRIS mutagenicity, Ames/micronucleus/aberration tests
- RUN DESCRIPTION: CCRIS mutagenicity studies
- APPLIED CONDITIONS: Test System: AMES SALMONELLA TYPHIMURIUM; Strain/Indicator: TA100; Metabolic Activation: NONE
Calls of active or inactive are those of the source. How the calls were made is not given here.
READOUT: mutagenic call

Answered cases to consult:
C/C=C(\Cl)C1=CC(=O)[C@]23C[C@H]2C(C)(C)O[C@]3(O)C1=O = inactive; negative
C/C=C/c1cc(OC)c(OC)cc1OC = inactive; negative
C=CCC1=C(C)C(OC(=O)[C@@H]2[C@@H](C=C(C)C)C2(C)C)CC1=O (stereo partly drawn) = active; positive
C[N+](C)(C)NCCC(=O)[O-] = inactive; negative
CC1=C(C(=O)OCCN(Cc2ccccc2)c2ccccc2)C(c2cccc([N+](=O)[O-])c2)C(P2(=O)OCC(C)(C)CO2)=C(C)N1 (stereo not drawn) = inactive; negative

IN: Which value of mutagenic call has been reported for OCC(CO)NC1CC(O)(CO)C(O)C(O)C1O (stereo not drawn) in the records?
OUT: inactive; negative

IN: Which value of mutagenic call has been reported for "O=C1[C@H]2CC=CC[C@H]2C(=O)N1SC(Cl)(Cl)Cl" in the records?
OUT: active; positive

IN: Which value of mutagenic call has been reported for O=C(Cc1ccccc1)NC(Cc1ccc(Cl)cc1)C(=O)O (stereo not drawn) in the records?
OUT: active; positive

----------
- Tested on: CCRIS mutagenicity, Ames/micronucleus/aberration tests
- RUN DESCRIPTION: CCRIS mutagenicity studies
- APPLIED CONDITIONS: Test System: AMES SALMONELLA TYPHIMURIUM; Strain/Indicator: TA1538; Metabolic Activation: RAT, LIVER, S-9; Method: STANDARD PLATE
- From the text: The CCRIS database contains chemical records with carcinogenicity, mutagenicity, tumor promotion, and tumor inhibition test results. It was developed by the National Cancer Institute (NCI). Data are derived from studies cited in primary journals, current awareness tools, NCI reports, and other sources. Test results have been reviewed by experts in carcinogenesis and mutagenesis. CCRIS provides historical information from the years 1985 - 2011. It is no longer updated. […]
The source made the active and inactive calls. The rule behind the calls is not given here.
READOUT: mutagenic call

Answered cases to consult:
NC(=O)c1cc[n+](COC[n+]2ccccc2/C=N/O)cc1 = inactive; negative
CCOCC(O)COc1ccc(NC(=O)CC[S+](C)C)cc1 (stereo unspecified) = inactive; negative
C[C@]12C=CC3=C4CCC(=O)C=C4CC[C@H]3[C@@H]1CC[C@@H]2O = inactive; negative
CC/C(=C(/CC)c1ccc(O)cc1)c1ccc(O)cc1 = inactive; negative
C[n+]1ccn(CCS(C)(=O)=O)c1/C=N/O = inactive; negative

Query compound follows.
IN: Hi! What's the reported mutagenic call for "O=C(O)CN(CC(=O)O)CC(=O)O" on CCRIS mutagenicity, Ames/micronucleus/aberration tests?
OUT: inactive; negative

----------
- Test system: CCRIS mutagenicity, Ames/micronucleus/aberration tests
- RUN DESCRIPTION: CCRIS mutagenicity studies
- APPLIED CONDITIONS: Test System: AMES SALMONELLA TYPHIMURIUM; Strain/Indicator: TA100; Metabolic Activation: NONE; Method: STANDARD PLATE
- Excerpt: The CCRIS database contains chemical records with carcinogenicity, mutagenicity, tumor promotion, and tumor inhibition test results. It was developed by the National Cancer Institute (NCI). Data are derived from studies cited in primary journals, current awareness tools, NCI reports, and other sources. Test results have been reviewed by experts in carcinogenesis and mutagenesis. CCRIS provides historical information from the years 1985 - 2011. It is no longer updated. […]
Activity calls are given as the source filed them. The rule behind the calls is not given here.
Outcomes you can answer with include only these: 1.0 for active, 0.0 for inactive

IN: # fetch the recorded call for "Nc1nc2n[nH]nc2c(=O)[nH]1" here
OUT: 0.0

IN: # fetch the recorded call for "CCS(=O)(=O)n1ncc(Cl)c(Cl)c1=O" here
OUT: 1.0

IN: # fetch the recorded call for CCOC(=O)CC1OCCc2c1[nH]c1c(CC)c(O)ccc21 (stereo not given) here
OUT: 0.0

IN: # fetch the recorded call for "O=C(Nc1ccccc1Br)c1csc([N+](=O)[O-])c1" here
OUT: 1.0

IN: # fetch the recorded call for "c1ccc(-c2nc(-c3ccccc3)c(-c3ccccc3)[nH]2)cc1" here
OUT: 1.0

IN: # fetch the recorded call for "N[C@@H](CCC(=O)N(CC(=O)O)C(=O)[C@@H](N)CSCCCl)C(=O)O" here
OUT: 1.0

IN: # fetch the recorded call for "O=C([O-])c1cccnc1Nc1cccc(C(F)(F)F)c1.O=C([O-])c1cccnc1Nc1cccc(C(F)(F)F)c1.[Cu+2]" here
OUT: 0.0

IN: # fetch the recorded call for O=[N+]([O-])c1ccc(OC2CO2)cc1 (stereo not given) here
OUT: 1.0

IN: # fetch the recorded call for O=C(CC(O)C(=O)OCCBr)OCCBr (stereo not given) here
OUT: 0.0

IN: # fetch the recorded call for "O=[N+]([O-])c1ccc2ccc3cc4c(c5ccc1c2c35)C=CCC4" here
OUT: 0.0

IN: # fetch the recorded call for "CC(=O)O[C@@H]1[C@@H](O)[C@H](O[C@H]2[C@H](OC(=O)[C@H]3CC[C@@H]4[C@H](C3)O[C@@]3(C[C@H](OC(=O)/C=C/c5ccccc5)[C@H](C)CO3)[C@]43CO3)O[C@H](C)[C@@H](O)[C@@H]2OC(C)=O)O[C@H](C)[C@H]1O" here
OUT: 0.0

IN: # fetch the recorded call for "Cc1ccc(C)c2c1ccc1ccccc12" here
OUT: 0.0

IN: # fetch the recorded call for "C1CSCSC1" here
OUT: 1.0

IN: # fetch the recorded call for "COC/C(=C/c1ccccc1)OC" here
OUT: 0.0

IN: # fetch the recorded call for "Nc1ccc(/C=C/c2cccc(N)c2)cc1" here
OUT: 0.0

IN: # fetch the recorded call for "Cl" here
OUT: 0.0

IN: # fetch the recorded call for "O=C1CCC(=O)N1Br" here
OUT: 0.0

IN: # fetch the recorded call for "ClCc1ccc2ccc3cccc4ccc1c2c34" here
OUT: 1.0

IN: # fetch the recorded call for "C=COC(C)=O" here
OUT: 0.0

IN: # fetch the recorded call for "CC(=O)Nc1ccc(O)cc1" here
OUT: 0.0

IN: # fetch the recorded call for "Nc1cc2c(O)c(N=Nc3ccc(N=Nc4ccc(S(=O)(=O)O)cc4)c4ccc(S(=O)O)cc34)c(S(=O)(=O)O)cc2cc1S(=O)(=O)O" here
OUT: 0.0

IN: # fetch the recorded call for "O=C([O-])c1ccc2ccccc2c1.[Mn+2].[O-]C(O)c1ccc2ccccc2c1" here
OUT: 0.0

IN: # fetch the recorded call for "BrCc1ccccc1CBr" here
OUT: 0.0

IN: # fetch the recorded call for C1CCCC2OC2CC1 (stereo not given) here
OUT: 0.0

IN: # fetch the recorded call for "O=C1C=Cc2ccc3c4c(ccc1c24)C=CC3=O" here
OUT: 0.0
